// data source = ChEMBL document CHEMBL1201862

# System: INS1
# Assay remarks: beta cell apoptosis inhibitors, cytokine rescue, dose response, luminescence, retest (AID 449756);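 also: cell death triggered by IL-1 beta plus TNF-alpha plus IFN-gamma mixture; protective hits raise ATP signal compared with cytokine alone wells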
# Format: functional, cell-based
# Particulars: Rattus norvegicus
The source made the active and inactive calls.
Observed property: AC50

Compound: CCOc1ccc(OCC)c(S(=O)(=O)NCCOC23CC4CC(CC(C4)C2)C3)c1
AC50: 8.76 µM (active)
--
Compound: COc1ccc(CC2(CO)CCN(CC3=Cc4cc(Cl)ccc4OC3)CC2)cc1
AC50: 3.28 µM (active)
--
Compound: C=C1C(O)[C@@H]2O[C@]3(CC[C@H](/C=C/C(C)[C@@H]4CC(C)=CC5(O[C@H](C[C@@](C)(O)CO)CCC5O)O4)O3)CC[C@H]2O[C@@H]1C(O)CC(C)[C@H]1OC2(CCCCO2)CCC1C (stereo partly specified)
AC50: 5.98 µM (active)
--
Compound: Cc1cc(C)c(C)c(S(=O)(=O)N2CCN(c3ncnc4ccccc34)CC2)c1C
AC50: 2.22 µM (active)

Lookup: # get_value(readout='AC50', item= Cc1cccc(NC(=O)/C=C/c2ccc([N+](=O)[O-])s2)c1 )
Found: 7.91 µM (active)

Lookup: Any idea what AC50 was measured for Cc1ccccc1NC(=O)/C=C/c1ccc([N+](=O)[O-])s1 ?
Found: 6.17 µM (active)

###

# Measured on: Voltage-gated N-type calcium channel alpha-1B subunit/Amyloid beta A4 precursor protein-binding family A member 1 (Homo sapiens, UniProt Q00975+Q02410)
# Sequence (Q00975 whole entry): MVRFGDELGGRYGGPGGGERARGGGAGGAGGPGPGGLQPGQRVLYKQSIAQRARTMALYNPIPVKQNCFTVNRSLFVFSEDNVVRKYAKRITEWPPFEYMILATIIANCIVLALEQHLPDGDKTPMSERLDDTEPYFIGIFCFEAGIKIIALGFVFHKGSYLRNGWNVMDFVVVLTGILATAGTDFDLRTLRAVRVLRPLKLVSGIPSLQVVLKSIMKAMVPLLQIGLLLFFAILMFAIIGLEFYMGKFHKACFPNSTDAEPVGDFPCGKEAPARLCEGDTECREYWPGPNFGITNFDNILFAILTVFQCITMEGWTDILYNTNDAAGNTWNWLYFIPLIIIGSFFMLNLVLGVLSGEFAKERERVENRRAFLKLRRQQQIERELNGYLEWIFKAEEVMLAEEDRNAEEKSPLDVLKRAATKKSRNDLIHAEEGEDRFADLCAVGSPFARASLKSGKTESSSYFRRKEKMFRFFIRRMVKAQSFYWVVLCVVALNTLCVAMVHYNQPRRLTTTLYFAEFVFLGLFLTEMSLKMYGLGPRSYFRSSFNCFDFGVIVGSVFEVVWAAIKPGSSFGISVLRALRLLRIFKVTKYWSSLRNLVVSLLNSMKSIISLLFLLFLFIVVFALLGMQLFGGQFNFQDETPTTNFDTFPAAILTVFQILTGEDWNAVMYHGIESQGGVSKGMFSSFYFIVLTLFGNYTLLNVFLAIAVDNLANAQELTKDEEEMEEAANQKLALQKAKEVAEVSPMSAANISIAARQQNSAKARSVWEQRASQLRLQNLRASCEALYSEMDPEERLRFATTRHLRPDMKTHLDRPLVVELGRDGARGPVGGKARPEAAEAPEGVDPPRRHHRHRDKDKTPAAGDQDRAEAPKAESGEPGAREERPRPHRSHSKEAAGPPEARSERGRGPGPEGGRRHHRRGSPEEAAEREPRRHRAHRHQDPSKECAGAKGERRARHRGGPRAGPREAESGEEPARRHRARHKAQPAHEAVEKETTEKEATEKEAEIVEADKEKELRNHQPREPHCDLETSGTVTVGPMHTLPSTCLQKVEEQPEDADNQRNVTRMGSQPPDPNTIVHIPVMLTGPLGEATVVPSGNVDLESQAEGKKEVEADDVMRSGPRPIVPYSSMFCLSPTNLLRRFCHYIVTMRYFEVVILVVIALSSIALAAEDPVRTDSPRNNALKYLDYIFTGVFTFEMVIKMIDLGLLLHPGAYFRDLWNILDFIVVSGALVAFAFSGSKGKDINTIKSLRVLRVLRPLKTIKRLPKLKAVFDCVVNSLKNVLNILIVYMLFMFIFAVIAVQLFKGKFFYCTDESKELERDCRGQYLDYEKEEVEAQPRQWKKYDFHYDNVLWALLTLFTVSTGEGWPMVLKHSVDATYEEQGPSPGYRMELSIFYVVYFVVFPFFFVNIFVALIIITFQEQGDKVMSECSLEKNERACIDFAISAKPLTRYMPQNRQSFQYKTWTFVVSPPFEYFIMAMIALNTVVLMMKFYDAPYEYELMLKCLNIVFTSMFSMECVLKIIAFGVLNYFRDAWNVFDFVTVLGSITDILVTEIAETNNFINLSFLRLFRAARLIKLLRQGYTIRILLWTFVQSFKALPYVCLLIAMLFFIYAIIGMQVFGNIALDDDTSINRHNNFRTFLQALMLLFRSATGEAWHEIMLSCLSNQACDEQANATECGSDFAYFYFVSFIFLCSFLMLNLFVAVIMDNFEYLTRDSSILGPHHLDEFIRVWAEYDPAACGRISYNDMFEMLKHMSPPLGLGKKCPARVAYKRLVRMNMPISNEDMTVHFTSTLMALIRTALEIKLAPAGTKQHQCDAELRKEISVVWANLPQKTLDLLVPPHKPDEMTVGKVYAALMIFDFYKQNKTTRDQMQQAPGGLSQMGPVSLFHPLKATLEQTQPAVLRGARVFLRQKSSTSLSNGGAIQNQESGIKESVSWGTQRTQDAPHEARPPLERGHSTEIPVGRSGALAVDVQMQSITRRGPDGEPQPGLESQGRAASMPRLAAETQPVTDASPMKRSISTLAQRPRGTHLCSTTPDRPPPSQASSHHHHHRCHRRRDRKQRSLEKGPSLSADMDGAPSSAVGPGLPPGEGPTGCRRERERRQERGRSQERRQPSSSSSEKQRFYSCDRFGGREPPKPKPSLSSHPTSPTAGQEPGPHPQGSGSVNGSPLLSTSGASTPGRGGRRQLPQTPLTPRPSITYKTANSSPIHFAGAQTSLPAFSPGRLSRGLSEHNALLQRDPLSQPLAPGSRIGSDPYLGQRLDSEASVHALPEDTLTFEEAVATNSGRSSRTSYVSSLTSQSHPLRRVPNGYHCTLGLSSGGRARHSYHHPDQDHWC
# Sequence (Q02410 whole entry): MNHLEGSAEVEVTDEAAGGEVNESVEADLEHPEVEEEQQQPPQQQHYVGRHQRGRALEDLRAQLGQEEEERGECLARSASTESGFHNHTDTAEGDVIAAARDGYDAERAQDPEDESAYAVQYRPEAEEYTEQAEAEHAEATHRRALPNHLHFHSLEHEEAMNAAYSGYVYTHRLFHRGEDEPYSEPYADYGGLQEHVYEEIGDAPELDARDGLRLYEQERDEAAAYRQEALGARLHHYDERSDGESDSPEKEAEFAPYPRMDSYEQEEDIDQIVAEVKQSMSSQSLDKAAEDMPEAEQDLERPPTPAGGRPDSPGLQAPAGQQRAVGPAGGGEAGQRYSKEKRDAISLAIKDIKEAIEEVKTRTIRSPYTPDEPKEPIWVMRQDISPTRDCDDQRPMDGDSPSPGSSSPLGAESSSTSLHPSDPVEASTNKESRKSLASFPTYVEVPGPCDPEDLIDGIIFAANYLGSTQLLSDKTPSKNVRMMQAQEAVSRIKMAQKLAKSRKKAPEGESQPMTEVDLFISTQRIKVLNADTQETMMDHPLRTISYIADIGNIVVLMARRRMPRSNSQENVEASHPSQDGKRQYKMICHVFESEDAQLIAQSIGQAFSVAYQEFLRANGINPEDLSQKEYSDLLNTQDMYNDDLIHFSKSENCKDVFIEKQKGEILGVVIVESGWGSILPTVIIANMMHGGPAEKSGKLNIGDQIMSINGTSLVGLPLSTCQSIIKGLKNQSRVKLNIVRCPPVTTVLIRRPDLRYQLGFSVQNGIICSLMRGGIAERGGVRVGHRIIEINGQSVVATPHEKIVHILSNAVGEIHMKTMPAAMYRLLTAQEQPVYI
# Assay type: protein assay
Activity calls are given as the source filed them.
Observed property: IC50

Smiles entry: CCOC(=O)c1nn(-c2ccc(C)c(C)c2)c(=O)c2c(N)scc12
IC50: 9.97 µM (active)
--
Smiles entry: Cc1cc(C(=O)O)ccc1-c1ccc(/C=C2\SC(=O)N(CC(=O)Nc3ccc4c(c3)OCO4)C2=O)o1
IC50: 17.5 µM (active)
--
Smiles entry: CCN(CC)Cc1cc(O)c(CN(CC)CC)cc1O
IC50: > 56.8 µM (not active)
--
Smiles entry: COc1ccc(NC(=O)CN2C(=O)/C(=C3\SC(=S)N(CCC(=O)O)C3=O)c3ccccc32)cc1
IC50: 14.5 µM (active)

Now look at this entry.
Lookup: # get_value(readout='IC50', item= COc1cc2c(cc1OC)-c1cc(Nc3ccc(C(=O)O)cc3)nc(=O)n1CC2 )
Found: 17.6 µM (active)

###

# Measured on: Corticotropin-releasing factor receptor 2/Corticotropin-releasing factor-binding protein (Homo sapiens, UniProt P24387+Q13324)
# Sequence (Q13324 whole entry): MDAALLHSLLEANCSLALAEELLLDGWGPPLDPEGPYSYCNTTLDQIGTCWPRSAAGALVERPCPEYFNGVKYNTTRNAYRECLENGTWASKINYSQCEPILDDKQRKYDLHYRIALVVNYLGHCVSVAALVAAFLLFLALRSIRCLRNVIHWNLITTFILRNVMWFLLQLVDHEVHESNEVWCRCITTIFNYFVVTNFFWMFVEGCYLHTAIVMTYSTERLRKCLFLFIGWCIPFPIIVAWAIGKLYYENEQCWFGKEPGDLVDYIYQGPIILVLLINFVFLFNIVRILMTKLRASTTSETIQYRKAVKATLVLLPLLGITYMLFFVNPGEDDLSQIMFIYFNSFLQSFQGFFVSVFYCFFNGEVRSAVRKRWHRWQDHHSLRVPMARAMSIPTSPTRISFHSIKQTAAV
# Sequence (P24387 whole entry): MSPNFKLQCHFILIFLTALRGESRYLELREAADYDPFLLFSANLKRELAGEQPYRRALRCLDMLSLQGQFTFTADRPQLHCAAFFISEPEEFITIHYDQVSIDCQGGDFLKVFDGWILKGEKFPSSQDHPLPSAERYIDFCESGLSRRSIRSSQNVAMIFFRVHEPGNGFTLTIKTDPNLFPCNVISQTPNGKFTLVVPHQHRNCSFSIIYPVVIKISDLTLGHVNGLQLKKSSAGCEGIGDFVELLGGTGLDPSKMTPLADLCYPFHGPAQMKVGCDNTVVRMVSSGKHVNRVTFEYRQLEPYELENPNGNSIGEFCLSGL
# Assay remarks: Dose Response confirmation of uHTS hits for small molecule antagonists of the CRF-binding protein and CRF-R2 receptor complex.
# Assay type: functional
# Particulars: read-out: IC50_Mean
Active and inactive are the calls of the source.
Overview of reported IC50 across a group of molecules:

In the examples that follow, each entry is paired with its recorded IC50.
Smiles entry: COc1ccccc1NS(=O)(=O)c1cc(C(=O)N2CCCC2)ccc1F
IC50: > 47.1 µM (inactive)

Smiles entry: Cc1ccc2c(cnn2C(=O)CCC(=O)N2CCCCC2)c1
IC50: > 47.1 µM (inactive)

Smiles entry: CC(=O)c1cc(F)c(N2CCN(C(=O)C(C)(C)C)CC2)cc1C
IC50: > 47.1 µM (inactive)

Smiles entry: CSc1ccccc1C(=O)N1CCN(S(=O)(=O)c2sc(C(=O)O)c(C)c2C(=O)O)CC1
IC50: > 47.1 µM (inactive)

Lookup: What value of IC50 has been reported for the following molecule? Cc1c(C(c2ccc(N(C)C)cc2)c2c(C)n(C)n(-c3ccccc3)c2=O)c(=O)n(-c2ccccc2)n1C
Found: > 47.1 µM (inactive)
